Data origin: the DeepSol protein solubility set

Experiment: soluble on expression in E. coli; label from the status in PepcDB or PDB records
ASSAY READOUT: soluble on expression in E. coli

Consider the reported soluble on expression in E. coli for these sequences:
MTTYAALLRGINVGGNKKVPMAELRTLLQGLGYGGVATYLQSGNAVFTSDHGDEQSLAAEVGQAIEKRFGFTVDVLVRDHAYLKAVREACPFPAAELEAKQLHVTYFSGPVDAERFASLDQPAFLPEEFRLGDRALYLYAPDGLGRSKLGETLARPRLLKGIVATSRNWNTVVKLEELTGA : not soluble
MKGGCVSQWKAAAGFLFCVMVFASAERPVFTNHFLVELHKGGEDKARQVAAEHGFGVRKLEHHHHHH : not soluble
MINLRWPLNWLKLQSSHGQRLNSQLNLIHSRKWIDFDEQIVGTWKLASSENCPNFIEWFGIEKKKSNYGYYNDLTQAKLNENLVFKMNYNNIVGIPKLFPHMSEKTVRENRHIKTTDDRSLKLTIDRYIDMGKLNVTMELKVNEGKHVCTCKLVYDRVYY : not soluble
MSLSAGETDERLRIATTTSLYDTKLLDTLESRFEEKYGIEVDVISGGTGFALEQGRRGDVDLLLVHDKAREYEFIAEGYGTERRCFAYNYFYIVGPADDPAGIKGTNASEAFRMIADAGEKNSNVRFVSRGDNSGTHAREKLLWKSAGIEPSGSWYLESGQGMGATLIMVDEKRAYTLTDMSTYMAFAGNLSLVPLVTESEELLNVYAAIPVSASEHLDDAERFVEFLLSQEGQEIIAGYGKDIYGRALFYPAAGHCTEIGCNATECPGEMVSAFGEGHHHHHH : soluble
MGSDKIHHHHHHMNFILELLRREQGRQQKELEFSQLPYQQRVAQLKEQKLPLFFYKYHSLHSHNPNKPQEKWEHASDYLINSRFYLSRPANFNDPFDMRAYFTDSVPKEKKRYFLDQLLKIRTPQLTEKDRVLEVKKLLDNPEKLRTIHKLTLDEAVDSFGVSCLSTAPCNILMWSHYANHHRGIAFQFNFAIDIFSFKWLQPVSYSNDFPGIEYFERRDNKYSIALLTKHHGWEYEKEWRIVKPNGAGTYQDFNSKILTGVILGCRIDRKDEDKIRTMIEQRKEQGLSSVKLYKLRQHESRYKLVIKHVE : not soluble
GPGGGSEAYFRVESGALGPEENFLSLDDILMSHEKLPVRTETAMPRLGAFFLERSAGAETDNAVPQGSKLELPLWLAKGLFDNKRRILSVELPKIYQEGWRTVFSADPNVVDLHKMGPHFYGFGSQLLHFDSPENADISQSLLQTFIGRFRRIMDSSQNAYNEDTSALVARLDEMERGLFQTGQKGLNDFQCWEKGQASQITASNLVQNYKKRKFTDMED : soluble

Okay, next one:
Input `MRKSRLSQHKQNKLIELFVAGVTARTASKLVNVNKNTATITFIDYAYSFIKQAHIWKCLKAKLKPMKAISAVLEKANVVAVLQGKSQYSGFSNEMQGLYRRCS` . Output soluble on expression in E. coli: not soluble
